These data points were gathered from patent US20240124504A1.

Let's look at some molecules and their measured pIC50.
SYSTEM: CDK2/cyclinE1 complex (Homo sapiens)
TEST: In-vitro enzymatic inhibitory activity testing, CDK2 inhibition assay (Caliper EZ Reader II)
RECORDED CONDITIONS: CDK2/cyclinE1 0.5 nM, 180 min at 27° C.
Procedure: CDK12/CyclinK was diluted in an assay buffer (80 mM MES PH 6.5, 0.01% Tween 20, 50 ug/mL BSA, 10 mM MgCl2) to afford a corresponding enzyme solution with the 2.4 concentration. […] A reaction mixture was analyzed on Caliper EZ Reader II by electrophoretic separation of a fluorogenic substrate and a phosphorylated product. Data were calculated by using GraphPad Prism version 6.0, and IC50 values were adjusted and obtained by using a nonlinear regression model of a dose response curve.
pIC50: −log10 of the molar value.

Worked cases, pIC50 given:
CP(C)(=O)c1cccc2c(-c3nc(NCC4(O)CC4)ncc3C(F)(F)F)c[nH]c12	4.30 to 5.30
C[C@@H](CO)Nc1ncc(C(F)(F)F)c(-c2c[nH]c3c(P(C)(C)=O)c(F)ccc23)n1	5.30 to 6.70

Give the value of pIC50 reported for the following: N#Cc1ccc2c(-c3nc(N[C@H]4CC[C@H](N)C4)ncc3C(F)(F)F)c[nH]c2n1
4.30 to 5.30

Give the value of pIC50 reported for the following: FC(F)(F)c1cnc(NC2COC3(CCCNC3)C2)nc1-c1c[nH]c2nc(N3CCOCC3)ccc12 (stereo not shown)
4.30 to 5.30

---

SYSTEM: CDK12 (aa686-1082)/cyclinK complex (Homo sapiens, UniProt Q9NYV4)
Construct: A CDK12 (aa686-1082)/cyclinK complex (50 nM)
Sequence (Q9NYV4 686-1082, species assumed): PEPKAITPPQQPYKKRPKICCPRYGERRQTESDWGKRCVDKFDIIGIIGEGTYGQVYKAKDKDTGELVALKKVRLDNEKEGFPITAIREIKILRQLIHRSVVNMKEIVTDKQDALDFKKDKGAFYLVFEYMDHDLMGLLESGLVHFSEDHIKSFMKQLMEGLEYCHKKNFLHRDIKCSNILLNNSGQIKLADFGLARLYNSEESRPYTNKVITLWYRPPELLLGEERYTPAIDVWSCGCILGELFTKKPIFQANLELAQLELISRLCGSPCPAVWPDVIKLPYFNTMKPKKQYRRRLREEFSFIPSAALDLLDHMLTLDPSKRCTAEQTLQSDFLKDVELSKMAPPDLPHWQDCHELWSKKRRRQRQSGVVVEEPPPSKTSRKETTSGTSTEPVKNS
Sequence (O75909 whole entry partner, species assumed, the tested form may be a part): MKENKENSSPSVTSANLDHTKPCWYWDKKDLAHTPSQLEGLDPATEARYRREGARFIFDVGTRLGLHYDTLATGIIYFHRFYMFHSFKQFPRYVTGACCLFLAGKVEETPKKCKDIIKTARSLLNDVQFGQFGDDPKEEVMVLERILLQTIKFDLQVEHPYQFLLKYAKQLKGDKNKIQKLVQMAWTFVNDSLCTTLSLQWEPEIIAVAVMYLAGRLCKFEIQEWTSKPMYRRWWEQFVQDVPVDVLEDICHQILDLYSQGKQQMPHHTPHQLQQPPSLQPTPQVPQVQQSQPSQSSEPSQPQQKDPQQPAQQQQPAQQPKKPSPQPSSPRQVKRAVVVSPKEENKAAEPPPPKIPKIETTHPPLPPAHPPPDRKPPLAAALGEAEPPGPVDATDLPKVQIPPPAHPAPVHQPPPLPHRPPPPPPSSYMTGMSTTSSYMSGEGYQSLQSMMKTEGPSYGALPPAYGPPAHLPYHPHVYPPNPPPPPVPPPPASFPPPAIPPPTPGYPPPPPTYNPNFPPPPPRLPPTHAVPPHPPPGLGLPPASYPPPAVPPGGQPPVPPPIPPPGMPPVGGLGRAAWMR
TEST: In-vitro enzymatic inhibitory activity testing, CDK12 inhibition assay (Caliper EZ Reader II)
Type: biochemical
RECORDED CONDITIONS: CDK12 IC50, CDK12/cyclinK 50 nM, 180 min at 27° C.
pIC50: −log10 of the molar value.
QUANTITY MEASURED: pIC50

Return reported pIC50 for target or system CDK12 (aa686-1082)/cyclinK complex (Homo sapiens, UniProt Q9NYV4), item CN[C@@H]1C[C@H]2O[C@@](C)([C@@H]1OC)n1c3ccccc3c3c4c(c5c6ccccc6n2c5c31)C(=O)NC4 [Staurosporine, staurosporine, reference compound] .
5.30 to 6.70

---

Let's look at some compounds and their measured pIC50.
SYSTEM: CDK9/cyclinT1 complex (Homo sapiens, UniProt P50750)
Sequence (P50750 whole entry, species assumed): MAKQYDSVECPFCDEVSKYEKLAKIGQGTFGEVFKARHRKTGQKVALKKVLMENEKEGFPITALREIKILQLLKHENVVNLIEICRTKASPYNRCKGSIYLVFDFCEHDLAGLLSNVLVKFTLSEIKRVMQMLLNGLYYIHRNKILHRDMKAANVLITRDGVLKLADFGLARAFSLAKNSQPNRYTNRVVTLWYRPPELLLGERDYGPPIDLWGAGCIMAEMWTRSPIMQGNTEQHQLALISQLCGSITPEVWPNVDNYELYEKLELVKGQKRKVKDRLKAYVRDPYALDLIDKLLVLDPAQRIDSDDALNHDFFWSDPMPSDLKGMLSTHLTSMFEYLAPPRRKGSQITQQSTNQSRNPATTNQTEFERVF
Sequence (O60563 whole entry partner, species assumed): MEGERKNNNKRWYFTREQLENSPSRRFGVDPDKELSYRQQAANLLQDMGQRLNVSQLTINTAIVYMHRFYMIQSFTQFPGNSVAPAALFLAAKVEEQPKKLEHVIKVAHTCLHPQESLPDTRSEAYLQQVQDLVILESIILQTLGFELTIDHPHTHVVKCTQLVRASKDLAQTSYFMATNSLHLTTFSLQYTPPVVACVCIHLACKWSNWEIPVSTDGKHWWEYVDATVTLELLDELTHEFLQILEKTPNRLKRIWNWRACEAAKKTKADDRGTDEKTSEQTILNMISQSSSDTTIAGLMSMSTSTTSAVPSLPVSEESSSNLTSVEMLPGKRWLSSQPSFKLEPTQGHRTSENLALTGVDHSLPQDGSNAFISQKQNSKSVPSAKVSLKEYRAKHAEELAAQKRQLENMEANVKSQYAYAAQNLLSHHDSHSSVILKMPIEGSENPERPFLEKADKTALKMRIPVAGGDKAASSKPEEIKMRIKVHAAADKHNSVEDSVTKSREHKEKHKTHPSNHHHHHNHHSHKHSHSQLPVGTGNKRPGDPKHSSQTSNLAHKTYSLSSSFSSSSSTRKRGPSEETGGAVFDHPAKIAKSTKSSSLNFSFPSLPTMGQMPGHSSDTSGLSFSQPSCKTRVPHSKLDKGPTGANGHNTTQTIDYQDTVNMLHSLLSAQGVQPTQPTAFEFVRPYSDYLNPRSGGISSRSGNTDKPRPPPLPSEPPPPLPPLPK
TEST: In-vitro enzymatic inhibitory activity testing, CDK9 inhibition assay (Caliper EZ Reader II)
RECORDED CONDITIONS: CDK9/cyclinT1 8 nM, 180 min at 27° C.
pIC50: −log10 of the molar value.

C[C@@H](CO)Nc1ncc(C(F)(F)F)c(-c2c[nH]c3c(P(C)(C)=O)c(F)ccc23)n1 [Compound 195]	< 4.30
CP(C)(=O)c1cccc2c(-c3nc(NC4CCC5(CCNC5)C4)ncc3C(F)(F)F)c[nH]c12 (single isomer, unassigned) [Compound 98]	4.30 to 5.30
FC(F)(F)c1cnc(NC2COC3(CCCNC3)C2)nc1-c1c[nH]c2nc(N3CCOCC3)ccc12 (stereo not shown) [Compound 50]	< 4.30
CP(C)(=O)c1cccc2c(-c3nc(NCC(F)(F)CO)ncc3C(F)(F)F)c[nH]c12 [Compound 102]	< 4.30
CP(C)(=O)c1cccc2c(-c3nc(NC4CC45CCNC5)ncc3C(F)(F)F)c[nH]c12 (single isomer, unassigned) [Compound 108]	4.30 to 5.30

Give the value of pIC50 reported for the following: FC(F)(F)c1cnc(NC2COC23CNC3)nc1-c1c[nH]c2nc(N3CCOCC3)ccc12 (stereo not shown) [Compound 58]
< 4.30

Give the value of pIC50 reported for the following: CP(C)(=O)c1c(C#N)ccc2c(-c3nc(N[C@H]4CC[C@H](N)C4)ncc3C(F)(F)F)c[nH]c12 [Compound 78]
4.30 to 5.30
